# Tested on: NCI-H460
# protocolDetails: NCI tumour cell line growth inhibition, 48 h
The source made the active and inactive calls. Cut-off read from the data, not from the text of the source: active = GI50 up to about 1.1 µM and inactive = higher.
quantityMeasured: GI50

Consider the following illustrative entries.
- compound: "CN(C)c1ccc(/C=C(\\NC(=O)c2ccccc2)C(=O)NCC(=O)O)cc1"
  GI50: "> 100 µM (inactive)"
- compound: "COc1ccc(/C=N/N=C(N)N)c(C(=O)O)c1OC"
  GI50: "> 100 µM (inactive)"

Ask | So what does the record say about GI50 for COc1ccc(OC)c(NC(=O)C(=O)C(C(=O)c2ccccc2F)C2OC(=O)c3ccccc32)c1 (stereo not drawn) ?
Reply | 44.8 µM (inactive)

// data source = ChEMBL document CHEMBL1201862
